Form field: IC50 (one value per entry).
- system name: human TLR9 (Homo sapiens, UniProt Q9NR96)
- Construct: host or cells: HEK-Blue hTLR9 (HEK-293)
- Sequence (Q9NR96 26-1032): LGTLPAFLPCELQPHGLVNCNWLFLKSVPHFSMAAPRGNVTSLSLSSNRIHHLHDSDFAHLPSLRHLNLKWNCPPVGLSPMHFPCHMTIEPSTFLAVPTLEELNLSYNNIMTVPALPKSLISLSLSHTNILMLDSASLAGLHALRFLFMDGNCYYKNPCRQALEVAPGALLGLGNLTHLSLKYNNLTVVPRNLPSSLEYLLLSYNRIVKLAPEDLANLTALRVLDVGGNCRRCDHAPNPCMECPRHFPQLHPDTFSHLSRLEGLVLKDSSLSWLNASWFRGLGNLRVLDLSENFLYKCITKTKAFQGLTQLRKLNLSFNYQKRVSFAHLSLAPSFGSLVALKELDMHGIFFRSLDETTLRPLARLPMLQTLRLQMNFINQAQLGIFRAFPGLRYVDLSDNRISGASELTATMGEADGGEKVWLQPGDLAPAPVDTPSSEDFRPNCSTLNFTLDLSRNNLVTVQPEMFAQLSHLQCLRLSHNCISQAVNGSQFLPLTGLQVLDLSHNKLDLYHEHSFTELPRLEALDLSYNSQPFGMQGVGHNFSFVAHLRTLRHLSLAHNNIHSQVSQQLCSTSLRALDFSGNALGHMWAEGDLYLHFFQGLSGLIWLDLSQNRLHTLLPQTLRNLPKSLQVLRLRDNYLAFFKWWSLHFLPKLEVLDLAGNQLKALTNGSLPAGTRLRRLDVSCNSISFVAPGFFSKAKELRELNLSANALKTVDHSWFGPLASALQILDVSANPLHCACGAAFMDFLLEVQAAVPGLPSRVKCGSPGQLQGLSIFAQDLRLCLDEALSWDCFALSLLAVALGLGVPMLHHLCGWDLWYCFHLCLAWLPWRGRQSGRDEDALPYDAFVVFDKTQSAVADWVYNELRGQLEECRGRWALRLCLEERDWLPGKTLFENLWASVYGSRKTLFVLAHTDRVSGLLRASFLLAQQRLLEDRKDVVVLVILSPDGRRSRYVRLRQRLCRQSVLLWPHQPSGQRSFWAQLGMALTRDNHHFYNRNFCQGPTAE
- assay text: HEK-Blue hTLR9 assay (SEAP reporter) with agonist ODN 2006
- Assay type: cell-based
- experimental context: Table B; HEK-Blue hTLR9 cells, ~3×EC50 ODN 2006, 18 h; exact values 8-point dilutions, approximate (~ or <) 4-point dilutions; read-out: ~IC50 (μM) with ODN2006
assay metric: IC50

- O=Cc1cc(C(=O)Nc2ccc(N3CCCC3)cc2)cc(F)c1O: 0.7 µM
- O=Cc1cc(C(=O)Nc2ccc(N3C[C@H]4CCC[C@H]4C3)cc2)cc(F)c1O: < 1.2 µM
- O=Cc1cc(C(=O)Nc2ccc(N3CC4(CCC4)C3)cc2)cc(F)c1O: < 1.2 µM
- O=Cc1cc(C(=O)Nc2ccccc2)cc(F)c1O: < 1.2 µM
- O=Cc1cc(C(=O)Nc2ccc(N3CCC(F)(F)CC3)cc2)cc(F)c1O: < 1.2 µM
- O=Cc1cc(NC(=O)Nc2ccc(N3CCCC3)cc2)cc(F)c1O: < 1.2 µM
- O=Cc1cc(C(=O)Nc2ccc(C(F)(F)F)c(Cl)c2)cc(F)c1O: > 33 µM
- O=Cc1cc(C(=O)Nc2ccc(N3C[C@H]4COC[C@H]4C3)cc2)cc(F)c1O: ~4.7 µM
- COc1cc(C#Cc2ccc(N3CCCC3)cc2)cc(O)c1C=O: > 33 µM
